- System: CAKI-1
- protocol: NCI one-dose screening, renal cancer CAKI-1
- Format: cell-based, human
- condition_parameters: 10 μM
Could you label it class 1 if measured Growth Percent CAKI-1 is 60% or higher, and class 0 otherwise?

Check out these entries, answers already filled in.
[[record]]
compound = "O=C1c2ccccc2C(=O)c2c1cc(Sc1ccccc1)c1nsnc21 [C19]"
classification = "class 1"

[[record]]
compound = "CCSc1cc2c(c3nsnc13)C(=O)c1ccccc1C2=O [C16]"
classification = "class 0"

[[record]]
compound = "O=C1c2ccccc2C(=O)c2c1cc(Sc1cccc(Cl)c1)c1nsnc21 [C37]"
classification = "class 0"

[[record]]
compound = "O=C1c2ccccc2C(=O)c2c1cc(N1CCSCC1)c1nsnc21 [C15]"
classification = "class 1"

[[record]]
compound = "O=C1c2ccccc2C(=O)c2c1cc(SCc1ccccc1)c1nsnc21 [C21]"
classification = "class 1"

[[record]]
compound = "O=C1c2ccccc2C(=O)c2c1cc(Sc1ccc(Cl)cc1)c1nsnc21 [C22]"
classification = "class 1"

[[record]]
compound = "O=C1c2ccccc2C(=O)c2c1cc(Cl)c1nsnc21 [C2]"
classification = "class 1"

[[record]]
compound = "CCOc1cccc(Sc2cc3c(c4nsnc24)C(=O)c2ccccc2C3=O)c1 [C50]"
classification = "class 1"

[[record]]
compound = "COc1ccc(Sc2cc3c(c4nsnc24)C(=O)c2ccccc2C3=O)cc1 [C41]"
classification = "class 1"

[[record]]
compound = "O=C1c2ccccc2C(=O)c2c1ccc1nsnc21 [C1]"
classification = "class 0"


Hi, just wondering whether O=C1c2ccccc2C(=O)c2c1cc(Sc1ccccc1Br)c1nsnc21 [C27] shows Growth Percent CAKI-1 of 60% or higher.
class 0

API: above_or_equal(metric=Growth Percent CAKI-1, cutoff=60%) for item O=C1c2ccccc2C(=O)c2c1cc(Sc1ccc(F)cc1F)c1nsnc21 [C39]
class 0

For this compound, is measured Growth Percent CAKI-1 60% or higher? CSc1ccc(Sc2cc3c(c4nsnc24)C(=O)c2ccccc2C3=O)cc1 [C43]
class 1

Given the entry Cc1ccccc1Nc1cc2c(c3nsnc13)C(=O)c1ccccc1C2=O [C61] , answer whether its Growth Percent CAKI-1 meets or surpasses 60%.
class 0

Is the recorded value of Growth Percent CAKI-1 equal to or greater than 60% for this compound? O=C1c2ccccc2C(=O)c2c1cc(Nc1ccc(Cl)cc1F)c1nsnc21 [C65]
class 1

* * *

- protocol: NCI one-dose screening, renal cancer A489
- Assay type: cell-based, human
- condition_parameters: 10 μM
Some molecules, each annotated with its measured Growth Percent A498.
Express your answer in %, writing the number without its unit.

Would you please look over these solved cases?
[[record]]
chemical_string = "O=C1c2ccccc2C(=O)c2c1cc(N1CCOCC1)c1nsnc21"
measured_number = 88.30

[[record]]
chemical_string = "O=C1c2ccccc2C(=O)c2c1cc(Sc1ccccn1)c1nsnc21"
measured_number = 68.74

[[record]]
chemical_string = "O=C1c2ccccc2C(=O)c2c1cc(SCc1ccccc1)c1nsnc21"
measured_number = 88.61


Shifting focus to the molecule that follows.
Fill blank: measured Growth Percent A498 of the molecule "COc1ccc(Sc2cc3c(c4nsnc24)C(=O)c2ccccc2C3=O)cc1" is ____.
84.77

* * *

- Test system: A549/ATCC
- protocol: NCI one-dose screening, non-small cell lung cancer A549/ATCC
- Format: cell-based, human
- condition_parameters: 10 μM
# reported Growth Percent A549/ATCC; entries follow
Only the number, expressed in %, is required.

[[record]]
compound = "O=C1c2ccccc2C(=O)c2c1cc(Sc1cccc(Cl)c1)c1nsnc21 [C37]"
measured_number = 107.48

[[record]]
compound = "O=C1c2ccccc2C(=O)c2c1cc(Sc1ccc(F)cc1F)c1nsnc21 [C39]"
measured_number = 111.54

[[record]]
compound = "CCSc1cc2c(c3nsnc13)C(=O)c1ccccc1C2=O [C16]"
measured_number = 20.39

[[record]]
compound = "CSc1ccc(Sc2cc3c(c4nsnc24)C(=O)c2ccccc2C3=O)cc1 [C43]"
measured_number = 104.69


Could you share which Growth Percent A549/ATCC value was measured for O=C1c2ccccc2C(=O)c2c1cc(Cl)c1nsnc21 [C2] ?
103.21
